Assay: solvent given as SMILES
Settings: in ClC(Cl)Cl
MEASUREMENT_KIND: absorption maximum
Kindly report the value followed by its unit.

Worked set:
# MOLECULE, TEST_RESULT
data = [
    ("CCCN1c2ccccc2Sc2cc(/C=C\\c3cc(=O)oc4cc(NC(=O)OCC)ccc34)ccc21", "422 nm"),
    ("F[B-]1(F)n2c(cc3oc4ccccc4c32)C(c2ccc(I)cc2)=C2C=c3oc4ccccc4c3=[N+]21", "637 nm"),
]

Incoming: Consider the molecule shown here: "N#Cc1cc2ccccc2oc1=O" What is its recorded absorption maximum?
Outgoing: 340 nm

Incoming: Consider the molecule shown here: CCCCCCCCCCCCOc1cc2c3c(ccc4c5c(OC6CCC(C(C)(C)C)CC6)cc6c7c(ccc(c1c34)c75)C(=O)N(C1CCCCC1)C6=O)C(=O)N(C1CCCCC1)C2=O (configuration not stated) What is its recorded absorption maximum?
Outgoing: 558 nm

Incoming: Consider the molecule shown here: Cc1cc(C)c(C2=C3C=CC=[N+]3[B-]3(c4cccc5ccccc45)Oc4cc(O)cc5c6ccc(C)cc6c6cc2n3c6c45)c(C)c1 (configuration not stated) What is its recorded absorption maximum?
Outgoing: 646 nm

Incoming: Consider the molecule shown here: "CN1CCc2cc(C3=Cc4cccc[n+]4[B-](F)(F)O3)ccc21" What is its recorded absorption maximum?
Outgoing: 430 nm

Incoming: Consider the molecule shown here: "COc1ccc2cc(-c3ccc(-c4cc5ccc(OC)cc5oc4=O)cc3)c(=O)oc2c1" What is its recorded absorption maximum?
Outgoing: 362 nm

Incoming: Consider the molecule shown here: "c1ccc(-c2nc(-c3ccccn3)[se]c2N(c2ccccc2)c2ccccc2)cc1" What is its recorded absorption maximum?
Outgoing: 406 nm

Incoming: Consider the molecule shown here: "CCCCCCCCC1(CCCCCCCC)c2cc(-c3ccc(C=C4C(=O)c5ccccc5C4=O)cc3)ccc2-c2ccc(-c3ccc(C=C4C(=O)c5ccccc5C4=O)cc3)cc21" What is its recorded absorption maximum?
Outgoing: 444 nm

Incoming: Consider the molecule shown here: "CC(=O)OCCOCCN1C(=O)c2cc(NCCOCCO)c3c4c(cc(NCCOCCO)c(c24)C1=O)C(=O)N(CCOCCOC(C)=O)C3=O" What is its recorded absorption maximum?
Outgoing: 610 nm

Incoming: Consider the molecule shown here: "CCC1(CC)c2ccccc2-c2ccc(C#Cc3ccc4ccc5cccc6ccc3c4c56)cc21" What is its recorded absorption maximum?
Outgoing: 404 nm

Incoming: Consider the molecule shown here: "O=c1c2cc(-n3c4ccccc4c4ccccc43)ccc2sc2ccc(-n3c4ccccc4c4ccccc43)cc12" What is its recorded absorption maximum?
Outgoing: 408 nm

---

Test: solvent given as SMILES
Conditions: in CC#N
# absorption maximum per record follows
Could you give me the number in nm? Just the number is fine.

# SMILES_REPRESENTATION, absorption maximum / nm
data = [
    ("Cc1cccc(-c2[nH]c(=O)n3c2-c2ccccc2C3=O)c1O", 391),
    ("Oc1ccc2ccccc2c1/C=N/CC/N=C/c1c(O)ccc2ccccc12", 408),
    ("c1ccc(Nc2nc(Nc3ccccc3)nc(Nc3ccc4cc5ccccc5cc4c3)n2)cc1", 401),
    ("COc1ccc(-c2csc(-c3ccncc3)n2)cc1", 394),
    ("O=C1c2ccccc2-c2c(-c3ccc([N+](=O)[O-])cc3)c(-c3ccc([N+](=O)[O-])cc3)c(-c3ccccc3)c3cccc1c23", 396),
    ("Cn1c(=O)cc(C(=O)c2ccccc2)c2sc(-c3ccc(OC(F)(F)F)cc3)cc21", 394),
]

Turning now to a further compound:
Incoming: Consider the compound shown here: "COc1cc(/C=C/c2nc3ccccc3s2)c(OC)cc1/C=C/c1ccncc1" What is its recorded absorption maximum?
Outgoing: 410
